Target: African green monkey C5 (African green monkey)
Assay: cell-based or functional assay
AGM Serum CP IC50, hemolysis assay, 5% serum values by entry
The answer should read as a number with its unit following.

// below: answered binders
| binder | value observed |
| --- | --- |
| H4H12169P (antibody, human IgG4, V domains shown, H4H: human IgG4 Fc with S108P hinge mutation) VH: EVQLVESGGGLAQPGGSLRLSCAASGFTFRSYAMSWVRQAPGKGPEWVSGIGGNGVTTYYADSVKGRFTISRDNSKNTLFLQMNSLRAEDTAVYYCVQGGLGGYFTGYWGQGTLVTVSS VL: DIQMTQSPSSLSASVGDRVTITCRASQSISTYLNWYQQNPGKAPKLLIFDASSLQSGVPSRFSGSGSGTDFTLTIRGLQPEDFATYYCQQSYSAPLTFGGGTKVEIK | 34.4 nM |
| H4H12159P (antibody, human IgG4, V domains shown, H4H: human IgG4 Fc with S108P hinge mutation) VH: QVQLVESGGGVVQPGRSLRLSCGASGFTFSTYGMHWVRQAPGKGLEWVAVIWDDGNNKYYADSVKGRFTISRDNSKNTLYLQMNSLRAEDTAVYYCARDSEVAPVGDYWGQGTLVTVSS VL: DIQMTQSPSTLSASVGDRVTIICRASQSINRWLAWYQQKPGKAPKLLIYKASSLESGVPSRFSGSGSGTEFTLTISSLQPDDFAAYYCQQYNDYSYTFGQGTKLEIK | 25.8 nM |

Query string: Return AGM Serum CP IC50, hemolysis assay, 5% serum for the following binder: H4H12164P (antibody, human IgG4, V domains shown, H4H: human IgG4 Fc with S108P hinge mutation) VH: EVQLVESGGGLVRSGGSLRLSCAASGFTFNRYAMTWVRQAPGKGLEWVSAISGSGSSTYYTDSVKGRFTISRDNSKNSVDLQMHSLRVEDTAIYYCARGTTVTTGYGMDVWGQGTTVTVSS VL: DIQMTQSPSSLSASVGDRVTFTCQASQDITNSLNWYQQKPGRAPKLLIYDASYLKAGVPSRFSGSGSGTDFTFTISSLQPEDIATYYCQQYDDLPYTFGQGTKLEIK
Result string: 247 nM

Data provenance is patent US20170355757A1.
